- assay-target: Recombinant human LTA4H (Homo sapiens, UniProt P09960)
- Sequence (P09960 whole entry): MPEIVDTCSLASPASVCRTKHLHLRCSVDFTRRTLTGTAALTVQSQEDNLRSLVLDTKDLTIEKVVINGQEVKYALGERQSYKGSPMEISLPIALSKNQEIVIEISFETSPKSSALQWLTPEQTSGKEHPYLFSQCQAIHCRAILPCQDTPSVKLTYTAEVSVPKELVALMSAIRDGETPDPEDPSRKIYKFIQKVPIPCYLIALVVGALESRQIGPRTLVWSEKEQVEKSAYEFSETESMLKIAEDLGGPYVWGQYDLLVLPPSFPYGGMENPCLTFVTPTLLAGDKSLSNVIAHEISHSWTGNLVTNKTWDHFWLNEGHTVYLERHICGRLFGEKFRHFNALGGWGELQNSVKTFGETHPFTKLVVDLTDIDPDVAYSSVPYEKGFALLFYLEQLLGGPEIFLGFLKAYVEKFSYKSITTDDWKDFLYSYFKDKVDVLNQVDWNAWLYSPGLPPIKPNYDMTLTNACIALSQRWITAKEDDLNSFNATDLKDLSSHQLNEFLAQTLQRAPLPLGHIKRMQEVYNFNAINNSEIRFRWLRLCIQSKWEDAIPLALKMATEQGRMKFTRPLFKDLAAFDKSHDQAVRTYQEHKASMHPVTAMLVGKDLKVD
- assay-method-text: In vitro epoxide hydrolase activity assay (LTB4 EIA readout)
- condition-set: LTA4 substrate 0.13 μM
attribute-measured: pIC50
Note on pIC50: it is the negative log10 of concentration, concentration in mol/L.

Please review the entries below; each comes with its answer.
{"compound": "CC(=O)N[C@H](Cc1ccc(O)cc1)[C@H](O)C(=O)N[C@@H](CC(C)C)C(=O)O", "pIC50": 7.89}
{"compound": "COC(=O)[C@H](CC(C)C)NC(=O)[C@@H](O)[C@@H](Cc1ccccc1)NC(C)=O", "pIC50": 7.03}
{"compound": "COC(=O)[C@H](CC(C)C)NC(=O)[C@@H](OC(C)=O)[C@@H](Cc1ccccc1)NC(C)=O", "pIC50": 7.60}
{"compound": "CC(=O)N[C@H](Cc1ccc(O)cc1)[C@H](OC(C)=O)C(=O)N[C@@H](CC(C)C)C(=O)O", "pIC50": 7.37}
{"compound": "COC(=O)[C@H](CC(C)C)NC(=O)[C@@H](O)[C@H](N)Cc1ccccc1", "pIC50": 7.27}
{"compound": "COC(=O)[C@H](CC(C)C)NC(=O)[C@@H](OC(C)=O)[C@@H](Cc1ccc(Br)cc1)NC(C)=O [di-acyl ubenimex bromide]", "pIC50": 7.40}

pIC50 measured on `CC(C)C[C@H](NC(=O)[C@@H](O)[C@H](N)Cc1ccc(Oc2nc3ccccc3s2)cc1)C(=O)O` = 8.00

Briefly, pIC50 measured for COC(=O)[C@H](CC(C)C)NC(=O)[C@@H](O)[C@@H](Cc1ccc(Br)cc1)NC(C)=O [mono-acyl ubenimex bromide] : 7.03

###

- assay-method-text: Pharmacokinetic analysis of oral ubenimex formulation
- Format: in vivo, rat
- condition-set: athymic, rat, in vivo, PEG-400/HPCD formulation
attribute-measured: half-life (h)
Give a bare numeral; the unit h is implied.

// half-life lookup, compound = `CC(C)C[C@H](NC(=O)[C@@H](O)[C@H](N)Cc1ccccc1)C(=O)O` , result: 12
